protocolDescription: qHTS Screen of the MIPE 4.0 Collection Against Ewings Sarcoma (TC32) (AID 1259256); note: nearly all actives have a fitted effect of over 45% in size
conditionParameters: TC32 Ewing sarcoma viability, CellTiter-Glo, 48 h; series mostly up to 45.8 µM
Results filed as inconclusive are left out. Active and inactive are the calls of the source. Calls come from the whole dose curve; as a rule, active = well fitted inhibition curve with a large enough effect; inconclusive = small, poorly fitted or top-dose-only effect; inactive = no such curve, though single readings can be large or run the other way.
Please state which outcome applies, choosing from active, inactive

Consider the following illustrative entries.
O=C(O)c1cn(-c2ccc(F)cc2)c2cc(N3CCNCC3)c(F)cc2c1=O ... inactive
C[C@@H](c1ncncc1F)[C@](O)(Cn1cncn1)c1ccc(F)cc1F ... inactive
COc1c2occc2cc2ccc(=O)oc12 ... active

Qu. Each molecule tested received a call. Report the one for Oc1ccc(OCc2ccccc2)cc1 .
Ans. active

----------
Tested on: W2
protocolDescription: qHTS profiling for inhibitors of Plasmodium falciparum proliferation (AID 504749); note: nearly all actives have a fitted effect of over 60% in size
conditionParameters: P. falciparum in erythrocytes, SYBR Green DNA, 72 h; series mostly up to 28.7 µM
Inconclusive results are not listed. Activity calls are given as the source filed them. The call rests on the fitted dose curve; in most records, active means well fitted inhibition curve with a large enough effect; inconclusive means small, poorly fitted or top-dose-only effect; inactive means flat fitted curve, though single readings scatter.
Please state which outcome applies, choosing from 1.0 (active), 0.0 (inactive)

Qu. Each compound tested received a call. Report the one for C[C@]12CCC(=O)C=C1CC[C@@H]1[C@H]2[C@@H](O)C[C@@]2(C)[C@H]1CC[C@]2(O)C(=O)CO .
Ans. 0.0

Qu. Each compound tested received a call. Report the one for CCCCC(CC)COC(=O)C(C#N)=C(c1ccccc1)c1ccccc1 (stereo not given) .
Ans. 1.0

Qu. Each compound tested received a call. Report the one for O=C(CS(=O)Cc1ccco1)NCC=CCOc1cc(CN2CCCCC2)ccn1 (stereo not given) .
Ans. 0.0

Qu. Each compound tested received a call. Report the one for CCOC(=O)c1c(C)n(C)c2ccc(O)cc12 .
Ans. 0.0

Qu. Each compound tested received a call. Report the one for NNc1nncc2ccccc12 .
Ans. 1.0

Qu. Each compound tested received a call. Report the one for COc1cc(OC)c(C(=O)CCCN2CCCC2)c(OC)c1 .
Ans. 0.0

Qu. Each compound tested received a call. Report the one for O=C(O)c1cccc(-c2noc(-c3ccccc3F)n2)c1 .
Ans. 0.0

Qu. Each compound tested received a call. Report the one for CCC1=C(C)CN(C(=O)NCCc2ccc(S(=O)(=O)NC(=O)NC3CCC(C)CC3)cc2)C1=O (stereo not given) .
Ans. 0.0

----------
Tested on: astro
protocolDescription: Drug repurposing screens with cells derived from glioblastoma tumor samples (AID 1345199); note: nearly all actives have a fitted effect of over 40% in size
conditionParameters: viability, ATP luminescence, 48 h; series mostly up to 45.9 µM
Inconclusive results are not listed. Calls of active or inactive are those of the source. Calls come from the whole dose curve; as a rule, active = well fitted inhibition curve with a large enough effect; inconclusive = small, poorly fitted or top-dose-only effect; inactive = flat fitted curve, though single readings scatter.
Please state which outcome applies, choosing from yes = active, no = inactive

C[C@H](Cn1cnc2c(N)ncnc21)OCP(=O)(O)O ... no
Cc1ccc(NC(=O)c2ccc(CN3CCN(C)CC3)cc2)cc1Nc1nccc(-c2cccnc2)n1 ... yes
Cc1cc(=O)oc2cc(O)ccc12 ... no
CCCCN(CCCC)CCC(O)c1cc2c(Cl)cc(Cl)cc2c2cc(C(F)(F)F)ccc12 (stereo unspecified) ... no

Qu. Each compound tested received a call. Report the one for Cc1ccc(C)c(OCCCC(C)(C)C(=O)O)c1 .
Ans. no

Qu. Each compound tested received a call. Report the one for CS(=O)(=O)OCCCCOS(C)(=O)=O .
Ans. no

----------
Tested on: CP335
protocolDescription: qHTS profiling for inhibitors of Plasmodium falciparum proliferation (AID 504749); note: nearly all actives have a fitted effect of over 60% in size
conditionParameters: P. falciparum in erythrocytes, SYBR Green DNA, 72 h; series mostly up to 28.7 µM
Results filed as inconclusive are left out. Calls of active or inactive are those of the source. Calls come from the whole dose curve; as a rule, active = well fitted inhibition curve with a large enough effect; inconclusive = small, poorly fitted or top-dose-only effect; inactive = flat fitted curve, though single readings scatter. Peptide text beside a SMILES is read from it.
Please state which outcome applies, choosing from active, inactive

Consider the following illustrative entries.
CC(S)C(=O)NCC(=O)O (stereo unspecified) ... inactive
Clc1ccc(C(Cn2ccnc2)OCc2ccsc2Cl)c(Cl)c1 (stereo unspecified) ... active
COc1cc(OC)c(C(=O)CCCN2CCCC2)c(OC)c1 ... inactive

Qu. Each compound tested received a call. Report the one for COC(=O)[C@H](Cc1ccccc1)NC(=O)[C@@H](N)CC(=O)O (H-Asp-Phe-OMe) .
Ans. inactive

Qu. Each compound tested received a call. Report the one for C[C@]12CCC(=O)C=C1CC[C@@H]1[C@H]2[C@@H](O)C[C@@]2(C)[C@H]1CC[C@]2(O)C(=O)CO .
Ans. inactive

Qu. Each compound tested received a call. Report the one for O=C(NCCO[N+](=O)[O-])c1cccnc1 .
Ans. inactive

Qu. Each compound tested received a call. Report the one for CC1=C(C)C(=O)C(C(CCCCCC(=O)O)c2ccccc2)=C(C)C1=O (stereo unspecified) .
Ans. inactive

Qu. Each compound tested received a call. Report the one for Cc1cccc(C)c1OCC(=O)N[C@@H](Cc1ccccc1)[C@@H](O)C[C@H](Cc1ccccc1)NC(=O)[C@H](C(C)C)N1CCCNC1=O .
Ans. active
